target: UniProt:P21462; experiment: Ca2+ flux assay in FPR1-HL60 cells; type: cell-based; details: read-out: FPR1-HL60 Efficacy
Sequence (P21462 whole entry): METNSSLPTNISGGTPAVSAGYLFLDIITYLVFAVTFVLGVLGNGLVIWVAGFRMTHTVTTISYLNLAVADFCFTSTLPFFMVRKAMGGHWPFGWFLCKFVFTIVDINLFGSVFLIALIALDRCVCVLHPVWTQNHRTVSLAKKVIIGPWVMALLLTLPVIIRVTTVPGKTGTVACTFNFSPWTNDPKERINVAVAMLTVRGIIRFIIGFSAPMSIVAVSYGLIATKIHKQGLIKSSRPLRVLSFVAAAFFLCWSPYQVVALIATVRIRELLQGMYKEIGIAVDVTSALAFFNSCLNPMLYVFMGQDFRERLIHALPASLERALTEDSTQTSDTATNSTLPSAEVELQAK
Quantity Name: Emax (%)

compound=CCCC(=O)c1c(C)nn(CC(=O)Nc2ccc(Br)cc2)c(=O)c1Nc1cccc(OC)c1 target_entity=UniProt:P21462 quantity_name=Emax recorded_value=70
compound=Cc1nn(CC(=O)Nc2ccc(Br)cc2)c(=O)c(N)c1-c1ccn(C)n1 target_entity=UniProt:P21462 quantity_name=Emax recorded_value=75
compound="COc1cccc(Nc2cc(C)cn(CC(=O)Nc3ccc(Br)cc3)c2=O)c1 [Compound 29b]" target_entity=UniProt:P21462 quantity_name=Emax recorded_value=110
compound=C=Cc1c(C)nn(CC(=O)Nc2ccc(Br)cc2)c(=O)c1Nc1cccc(OC)c1 target_entity=UniProt:P21462 quantity_name=Emax recorded_value=120
compound="CCOC(=O)c1c(C)nn(CC(=O)Nc2ccc(Br)cc2)c(=O)c1Nc1cccc(OC)c1 [Compound 19b]" target_entity=UniProt:P21462 quantity_name=Emax recorded_value=90

1. CCCCc1c(C)nn(CC(=O)Nc2ccc(Br)cc2)c(=O)c1Nc1cccc(OC)c1 [Compound 13c]
2. CCc1c(C)nn(CC(=O)Nc2ccc(Br)cc2)c(=O)c1Nc1cccc(OC)c1 [Compound 13a]
Of 1 and 2 , whose reported Emax is numerically smaller? Indicate which entry you chose by stating its label. 1
(1: 65%, 2: 185%)

I. COc1ccc(Nc2c(-c3ccn(C)n3)c(C)nn(CC(=O)Nc3ccc(Br)cc3)c2=O)cc1 [Compound 27b]
II. CCCCC(=O)c1c(C)nn(CC(=O)Nc2ccc(Br)cc2)c(=O)c1Nc1cccc(OC)c1
III. COC(=O)c1c(C)nn(CC(=O)Nc2ccc(Br)cc2)c(=O)c1Nc1cccc(OC)c1 [Compound 19a]
Task for the reader: rank each entry by its Emax, from the minimum upward. Give the labels in the order requested. III, II, I

A. COc1cccc(Nc2cc(C)nn(CC(=O)Nc3ccc(Br)cc3)c2=O)c1 [Compound 29a]
B. COc1cccc(Nc2c(C(C)=O)c(C)nn(CC(=O)Nc3ccc(Br)cc3)c2=O)c1
// select label with min value of measured Emax from [ A , B ] Identify your pick by its label. A
(A: 120%, B: 185%)
